Each entry below carries its recorded melting point.

Worked set:
# Molecule, melting point
data = [
    ("CCCc1ncc(/C=C(\\Cc2cccs2)C(=O)O)n1Cc1ccccc1[N+](=O)[O-]", "223 °C"),
    ("CC(C)C(S)C(=O)NC1(C(=O)NC(Cc2ccc(-c3ccccc3)cc2)C(=O)O)CCOCC1 (stereo not given)", "161 to 163 °C"),
    ("CN1C(=O)[C@H](NC(=O)C2Cc3ccccc3O2)N=C(c2ccccc2)c2ccccc21 (stereo not given in full)", "141 to 180 °C"),
    ("CCOC(=O)c1ccc(C#CCc2ccc3c(c2)C(C)(C)CCC3(C)C)cc1", "59 to 60 °C"),
    ("COC(=O)[C@@H](C)c1ccc2c(Br)c(OC)ccc2c1", "94 to 95 °C"),
    ("CC(C)n1nc(-c2c(-c3ccccc3)nc(N)nc2N(C)C)ccc1=O", "293 to 296 °C"),
    ("O=C(O)C1=C(C(=O)O)Oc2ccccc2O1", "215 to 218 °C"),
    ("Cc1[nH]c2ccccc2c1CCN1CCN(C(c2ccc(F)cc2)c2ccc(F)cc2)CC1", "65 to 73 °C"),
    ("COc1ccc(C(=O)C(=O)c2cccc(-c3ccc(S(C)(=O)=O)cc3)c2-c2ccccc2)cc1Cl", "163 to 166 °C"),
    ("COc1cc(OCc2ccc3ccccc3c2)cc(C(=O)c2nccs2)c1", "105 to 106 °C"),
]

// melting point value for CCC1CC(=O)C=C2CCC3C4CCC(=O)C4(C)CCC3C21C (stereo not given) : 168 °C

Value of melting point reported for the molecule `COc1ccc(Br)cc1C(=O)NCCc1ccc(CCC(=O)O)cc1` is 120 to 121 °C

// field: melting point; key: `CC1(C)CCC(C)(C)c2cc3oc(-c4ccc(CO)cc4)nc3cc21` ; value = 200 °C

molecule `CCCc1nn(-c2ccc(C(F)(F)F)cn2)cc1C(=O)OCC` , melting point observed: 102 to 103 °C

Consider `CCCOc1ccc(Br)cc1CN(CC)c1ccc(C(=O)O)nn1` . Its measured melting point is 135 to 137 °C

// melting point lookup, molecule = CC(C)n1cc2c3c(cccc31)C1CC(C(=O)NC3CCCCC3)CN(C)C1C2 (stereo not given) , result: > 250 °C

melting point for `CC=CC(=O)c1oc2c(-c3ccc(F)cc3)c(-c3ccc(S(C)(=O)=O)cc3)nn2c1C` is 197 to 199 °C

Looking up CC(=O)OCC1CC(=O)NN=C1c1ccc(N2CCOCC2)c(C#N)c1 (stereo not given) , I found its melting point recorded as 60 to 69 °C

Lab note: measured melting point of `C=CC(=O)Nc1cccc(OC(=O)NCCCCCCCCCCCCCCCCCC)c1` was 124 to 126 °C

Reported melting point of `CCOC(=O)CCCCSc1nnc(S)s1` : 53 °C

Entry `Cc1cc2cnnc(Cl)c2n1CC(C)C` — recorded melting point = 96 to 99 °C

So, `CCCCCC(=O)c1ccc(C(=O)Nc2ccc3cc(CN4CCCC4)cnc3c2C)cc1` ? Its melting point was 175 °C

The reported melting point of the molecule CS(=O)(=O)c1ccc2c(c1)C1(O)C(C2)SC(=Nc2ccccc2)N1c1ccccc1 (stereo not given) was 75 °C

The recorded melting point for entry O=C(O)COc1cccc(-c2ccccc2OC2OC(CO)C(O)C(O)C2O)c1 (stereo not given) equals 58 to 60 °C

get_value(item= O=C(O)CCCn1c(=O)n2n(c1=O)C(C(=O)O)C=CC2 (stereo not given) , readout=melting point) returns 130 °C

The measured melting point associated with `CN(C)C(=O)Nc1ccc(Oc2ccc(Cl)nn2)cc1` reads 173 to 174 °C
